Molecular target: T1, cyno CD137 on DO11.10-cCD137 cells (cynomolgus, UniProt Q07011 24-255 (human entry))
T1 chain: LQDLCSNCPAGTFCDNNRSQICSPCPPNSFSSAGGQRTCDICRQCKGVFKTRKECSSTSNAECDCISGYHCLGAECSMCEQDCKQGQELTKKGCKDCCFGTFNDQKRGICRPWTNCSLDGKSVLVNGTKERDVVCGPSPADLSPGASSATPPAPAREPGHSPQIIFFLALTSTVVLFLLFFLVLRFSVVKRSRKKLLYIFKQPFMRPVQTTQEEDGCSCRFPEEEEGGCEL
Assay: cell-based or functional assay
measuredParameter: Emax (mIL-2 pg/ml), DO11.10-cCD137 T cell assay, crosslinked

State the recorded Emax (mIL-2 pg/ml), DO11.10-cCD137 T cell assay, crosslinked for this entry: FS20-22-49AA/FS30-35-14 (bispecific antibody, human IgG1, kappa, L234A L235A, V domains shown, M100F (Kabat) to A against FS30-35; also called FS30-35-14 in mAb^2 format) VH: EVQLLESGGGLVQPGGSLRLSCAASGFTFSAYNIHWVRQAPGKGLEWVSDISPYGGATNYADSVKGRFTISRDNSKNTLYLQMNSLRAEDTAVYYCARNLYELSAYSYGADYWGQGTLVTVSS VL: EIVLTQSPGTLSLSPGERATLSCRASQSVSSSYLAWYQQKPGQAPRLLIYGASSRATGIPDRFSGSGSGTDFTLTISRLEPEDFAVYYCQQYYYSSPITFGQGTKVEIKR
69700 pg/mL
